Biological target: T1, recombinant mature dimeric myostatin (human and mouse (mature sequences 100% …, UniProt O08689 268-376))
T1 construct: also called GDF-8; mature myostatin
T1 sequence: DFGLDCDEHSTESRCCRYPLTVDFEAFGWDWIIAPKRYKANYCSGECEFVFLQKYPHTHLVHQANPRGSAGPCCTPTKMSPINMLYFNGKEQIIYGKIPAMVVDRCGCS
Test: myostatin capture ELISA: polyclonal anti-myostatin coated, myostatin 1 ug/ml captured, antibody titrated, anti-human kappa-HRP, OPD, A490

binder	binding result
H2L2-C91S_F100G_N (antibody, V domains shown) VH: QVQLVQSGAEVKKPGASVKVSCKASGYSFTGYFMHWVRQAPGQGLEWMGNIYPYNGVSNYNQRFKARVTMTTDTSTSTAYMELRSLRSDDTAVYYCARRYYYGTGPADWYNDVWGQGTLVTVSS VL: DIQMTQSPSSLSASVGDRVTITCKASQDINSYLSWFQQKPGKAPKSLIYRANRLVDGVPSKFSGSGSGTDYTLTISSLQPEDFATYYCLQSDEFPLTFGQGTKLEIKR	binds
H2L2-C91S_G100A_K (antibody, V domains shown) VH: QVQLVQSGAEVKKPGASVKVSCKASGYSFTGYFMHWVRQAPGQGLEWMGNIYPYNGVSNYNQRFKARVTMTTDTSTSTAYMELRSLRSDDTAVYYCARRYYYGTKPADWYFDVWGQGTLVTVSS VL: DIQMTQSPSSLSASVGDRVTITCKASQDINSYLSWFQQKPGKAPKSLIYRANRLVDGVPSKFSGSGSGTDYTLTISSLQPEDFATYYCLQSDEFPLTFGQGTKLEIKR	binds
H2L2-C91S_G99S (antibody, V domains shown) VH: QVQLVQSGAEVKKPGASVKVSCKASGYSFTGYFMHWVRQAPGQGLEWMGNIYPYNGVSNYNQRFKARVTMTTDTSTSTAYMELRSLRSDDTAVYYCARRYYYSTGPADWYFDVWGQGTLVTVSS VL: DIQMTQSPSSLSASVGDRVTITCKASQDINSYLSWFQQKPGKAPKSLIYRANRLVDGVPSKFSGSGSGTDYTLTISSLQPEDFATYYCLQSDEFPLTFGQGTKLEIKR	binds
HoLo (antibody, V domains shown, also called H0L0; copies: 2 + 2) VH: QVQLVQSGAEVKKPGASVKVSCKASGYTFTGYFMHWVRQAPGQGLEWMGNIYPYNGVSNYNQRFKARVTMTTDTSTSTAYMELRSLRSDDTAVYYCARRYYYGTGPADWYFDVWGQGTLVTVSS VL: DIQMTQSPSSLSASVGDRVTITCKASQDINSYLSWFQQKPGKAPKSLIYRANRLVDGVPSKFSGSGSGTDFTLTISSLQPEDFATYYCLQCDEFPLTFGQGTKLEIKR	binds
H2L2-C91S_W100E_F (antibody, V domains shown) VH: QVQLVQSGAEVKKPGASVKVSCKASGYSFTGYFMHWVRQAPGQGLEWMGNIYPYNGVSNYNQRFKARVTMTTDTSTSTAYMELRSLRSDDTAVYYCARRYYYGTGPADFYFDVWGQGTLVTVSS VL: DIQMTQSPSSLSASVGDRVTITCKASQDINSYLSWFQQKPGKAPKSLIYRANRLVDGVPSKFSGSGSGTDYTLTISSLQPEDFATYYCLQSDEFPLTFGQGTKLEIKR	binds
